B1: DYRK1B (parent)
chain: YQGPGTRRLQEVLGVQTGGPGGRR

variants of: B1; assay: protein stability index of a GFP-peptide fusion (GPS, HEK-293T) (PSI 1-6); higher = more stable; settings: c terminus: a fixed tail appended;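 note: lentivirally expressed fusions sorted by FACS into six bins by GFP to DsRed ratio, PSI derived from sequencing read proportions per bin multiplied by bin number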
property: protein stability index

>>> print(df.to_string())
   variant_notation  reading
0              Q10P     4.21
1               R8T     2.97
2               Q2T     3.12

**Query** Please give the measured protein stability index for this variant: G18S
**Result** 3.15

**Query** Would you mind doing R8A as well?
**Result** 3.24

**Query** Would you mind doing G14C as well?
**Result** 1.55

**Query** Would you mind doing R24F as well?
**Result** 2.49

**Query** Would you mind doing P20G as well?
**Result** 3.15

**Query** Would you mind doing G19T as well?
**Result** 3.44

**Query** Would you mind doing P4N as well?
**Result** 2.69

**Query** Would you mind doing L13W as well?
**Result** 1.67
